meta.source: patent EP0372582A2

test.name: Chemical stability in aqueous solution (half-life)
Type: physicochemical
run.conditions: phosphate buffer, pH 7.4, 37°C, pH 7.4 phosphate buffer, by uv; read-out: t1/2, pH 7.4 (converted)
parameter.measured: half-life

These solved cases illustrate the format of a correct answer.
{"compound": "CSC1=C(C(=O)O)N2C(=O)[C@H]([C@@H](C)N)[C@H]2[C@H]1C [Procedure 9]", "half-life": "6.8 h"}
{"compound": "C[C@@H](N)[C@H]1C(=O)N2C(C(=O)O)=C(SCc3cccnc3)[C@H](C)[C@H]12 [Procedure 21]", "half-life": "3 h"}
{"compound": "C[C@@H](N)[C@H]1C(=O)N2C(C(=O)O)=C(SCc3ccccn3)[C@H](C)[C@H]12 [Procedure 18]", "half-life": "2.8 h"}
{"compound": "CSC1=C(C(=O)O)N2C(=O)[C@H]([C@H](C)O)[C@H]2[C@H]1C [Procedure 4]", "half-life": "160 h"}

**Query** If you can, please state the reported half-life value of C[C@@H](N)[C@H]1C(=O)N2C(C(=O)O)=C(SCCC#N)[C@H](C)[C@H]12 [Procedure 26] .
**Result** 2.8 h

---

test.name: Blood concentration parameters after administration to mice
Format: in vivo
run.conditions: mouse, in vivo; mice, PO, 50 mg/kg; blood half-life
Could you please report measured half-life for the items listed next?
Give bare numbers, in min.

{"molecule": "C[C@@H](N)[C@H]1C(=O)N2C(C(=O)O)=C(SCc3cn(C)nn3)[C@H](C)[C@H]12", "val": 24}

Consider now this further molecule.
**Query** Bench note: what half-life did C[C@@H](N)C1C(=O)N2C(C(=O)O)=C(SCc3ccccc3)[C@H](C)[C@H]12 (stereo in doubt) show?
**Result** 13

---

test.name: Blood concentration parameters after administration to mice
Format: in vivo
run.conditions: mouse, in vivo; mice, PO, 50 mg/kg
parameter.measured: AUC (ng·h/mL)
Give bare numbers, in ng·h/mL.

{"compound": "C[C@@H](N)[C@H]1C(=O)N2C(C(=O)O)=C(SCc3cn(C)nn3)[C@H](C)[C@H]12 [Procedure 15]", "result.units": "ng·h/mL", "AUC": 25000}

Please look at the following compound next.
**Query** Name the reported AUC value associated with the compound C[C@@H](N)C1C(=O)N2C(C(=O)O)=C(SCc3ccccc3)[C@H](C)[C@H]12 (stereo in doubt) [Procedure 12]
**Result** 11000

---

Provide the recorded half-life for the entries that follow.
test.name: Blood concentration parameters after administration to mice
Assay type: in vivo
run.conditions: mouse; mice, PO, 50 mg/kg; blood half-life
Numbers only, in min.

Example compounds with recorded half-life:
{"smiles.notation": "C[C@@H](N)[C@H]1C(=O)N2C(C(=O)O)=C(SCc3cccnc3)[C@H](C)[C@H]12", "half-life (min)": 23}
{"smiles.notation": "C[C@@H](N)[C@H]1C(=O)N2C(C(=O)O)=C(SCc3ccccn3)[C@H](C)[C@H]12", "half-life (min)": 24}

**Query** Look at this compound and give its reported half-life. CSC1=C(C(=O)O)N2C(=O)[C@H]([C@@H](C)N)[C@H]2[C@H]1C
**Result** 18

---

test.name: Chemical stability in aqueous solution (half-life)
Format: physicochemical
run.conditions: phosphate buffer, pH 7.4, 37°C, pH 7.4 phosphate buffer, by uv; read-out: t1/2, pH 7.4 (converted)
parameter.measured: half-life (h)
Answers are plain numbers, in h.

{"smiles.notation": "CSC1=C(C(=O)O)N2C(=O)[C@H]([C@@H](C)NC(=O)[C@H](CC(C)C)NC(=O)[C@H](C)N)[C@H]2[C@H]1C", "result.units": "h", "half-life": 46}
{"smiles.notation": "C[C@@H](N)[C@H]1C(=O)N2C(C(=O)O)=C(SCc3cn(C)nn3)[C@H](C)[C@H]12", "result.units": "h", "half-life": 3.1}
{"smiles.notation": "CSC1=C(C(=O)O)N2C(=O)[C@H]([C@@H](C)NC(=O)CNC(=O)[C@H](C)N)[C@H]2[C@H]1C", "result.units": "h", "half-life": 29}

Next molecule, please.
**Query** Reported half-life, molecule CCSC1=C(C(=O)O)N2C(=O)[C@H]([C@@H](C)N)[C@H]2[C@H]1C : ____
**Result** 4.3

---

I'd appreciate it if you could supply Cmax values for the items below.
test.name: Blood concentration parameters after administration to mice
Format: in vivo
run.conditions: mouse, blood, 20 mg/kg; mice, IM/20; read-out: Cmax, IM/20
Answers are plain numbers, in ng/mL.

{"smiles.notation": "C[C@@H](N)[C@H]1C(=O)N2C(C(=O)O)=C(SCc3cccnc3)[C@H](C)[C@H]12", "val": 18000}

**Query** Dear colleague, I am looking for the recorded Cmax of the following compound: C[C@@H](N)[C@H]1C(=O)N2C(C(=O)O)=C(SCc3ccccn3)[C@H](C)[C@H]12
**Result** 24000

---

Please provide measured half-life for the entries that follow.
test.name: Chemical stability in aqueous solution (half-life)
Assay type: physicochemical
run.conditions: 37°C, pH 7.4 phosphate buffer, by uv; read-out: t1/2, pH 7.4 (converted)
Value and unit, in that order.

{"molecule": "C[C@@H](N)C1C(=O)N2C(C(=O)O)=C(SCc3ccccc3)[C@H](C)[C@H]12 (stereo in doubt)", "half-life": "246 min"}

Proceed to the following item.
**Query** GET /values?readout=half-life&item= C[C@H](N)[C@H]1C(=O)N2C(C(=O)O)=C(SCCC#N)[C@H](C)[C@H]12
**Result** 90 min

---

test.name: Blood concentration parameters after administration to mice
Assay type: in vivo
run.conditions: mouse, 20 mg/kg; mice, IM/20; blood half-life
parameter.measured: half-life
Output should be the measured figure followed by the unit it is expressed in.

{"smiles.notation": "C[C@@H](N)[C@H]1C(=O)N2C(C(=O)O)=C(SCc3cccnc3)[C@H](C)[C@H]12", "val": "12 min"}

**Query** Requested read-out: half-life. Entry: C[C@@H](N)[C@H]1C(=O)N2C(C(=O)O)=C(SCc3ccccn3)[C@H](C)[C@H]12
**Result** 15 min
